Recorded pEC50 values for a group of compounds are listed next.
System: HCV replicon-containing huh-7 cells (replicon 1b)
method description: HCV Replicon Assay (luciferase readout)
Format: cell-based
condition description: Hepatitis C virus; HCV replicon 1b in huh-7 cells, 48 h incubation, 1% DMSO, luciferase signal; read-out: EC50 (EC 50 on replicon 1b)
pEC50: −log10 of the molar value.

compound | pEC50
CC[C@@H]1C[C@]1(NC(=O)[C@@H]1C[C@@H]2CN1C(=O)[C@H](C1CCCCC1)NC(=O)[C@@H](NC(=O)OC(C)(C)C)COCCCc1cccc3c1CN(C3)C(=O)O2)C(=O)NS(=O)(=O)C1CC1 [Compound IIa-18] | 7.30 to 8.00
C=C[C@@H]1C[C@]1(NC(=O)[C@@H]1C[C@@H]2CN1C(=O)[C@H](C1CCCCC1)NC(=O)[C@@H](NC(=O)OC(C)(C)C)COC/C=C/c1cc3c(nccc3cc1OC)O2)C(=O)O [Compound IIb-7] | 4.70 to 6.30

###

System: HCV replicon-containing huh-7 cells (replicon 1b)
method description: HCV Replicon Assay (luciferase readout)
Format: cell-based
condition description: Hepatitis C virus; HCV replicon 1b in huh-7 cells, 48 h incubation, 1% DMSO, luciferase signal; read-out: EC50 (EC 50 on replicon 1b)
quantity name: EC50

compound | experimental target | readout value
C=C[C@@H]1C[C@]1(NC(=O)[C@@H]1C[C@@H]2CN1C(=O)[C@H](C(C)(C)C)NC(=O)[C@@H](N)COC/C=C/c1cccc3c1CN(C3)C(=O)O2)C(=O)NS(=O)(=O)C1CC1 [Compound IIa-2] | HCV replicon-containing huh-7 cells (replicon 1b) | 10 to 50 nM
C=C[C@@H]1C[C@]1(NC(=O)[C@@H]1C[C@@H]2CN1C(=O)[C@H](C(C)(C)C)NC(=O)[C@@H](NC(=O)OC(C)(C)C)CSC/C=C/c1cccc3c1CN(C3)C(=O)O2)C(=O)NS(=O)(=O)C1CC1 [Compound IIa-21] | HCV replicon-containing huh-7 cells (replicon 1b) | 10 to 50 nM
CCC1C[C@]1(NC(=O)[C@@H]1C[C@@H]2CN1C(=O)[C@H](C1CCCCC1)NC(=O)[C@@H](NC(=O)OC(C)(C)C)COCCCc1cc3c(nccc3cc1OC)O2)C(=O)NS(=O)(=O)C1CC1 (stereo in doubt) [Compound IIb-6] | HCV replicon-containing huh-7 cells (replicon 1b) | 50 to 500 nM
C=C[C@@H]1C[C@]1(NC(=O)[C@@H]1C[C@@H]2CN1C(=O)[C@H](C1CCCC1)NC(=O)[C@@H](NC(=O)OC(C)(C)C)COC/C=C/c1cccc3c1CN(C3)C(=O)O2)C(=O)NS(=O)(=O)C1CC1 [Compound IIa-22] | HCV replicon-containing huh-7 cells (replicon 1b) | < 10 nM
C=C[C@@H]1C[C@]1(NC(=O)[C@@H]1C[C@@H]2CN1C(=O)[C@H](C(C)(C)C)NC(=O)[C@@H](NC(C)=O)COC/C=C/c1cccc3c1CN(C3)C(=O)O2)C(=O)NS(=O)(=O)C1CC1 [Compound IIa-7] | HCV replicon-containing huh-7 cells (replicon 1b) | 50 to 500 nM
CC[C@@H]1C[C@]1(NC(=O)[C@@H]1C[C@@H]2CN1C(=O)[C@H](C(C)(C)C)NC(=O)[C@@H](NC(=O)OC(C)(C)C)COC/C=C/c1cccc3c1CN(C3)C(=O)O2)C(=O)NS(=O)(=O)C1CC1 [Compound IIa-15] | HCV replicon-containing huh-7 cells (replicon 1b) | < 10 nM
C=C[C@@H]1C[C@]1(NC(=O)[C@@H]1C[C@@H]2CN1C(=O)[C@H](C(C)(C)C)NC(=O)[C@@H](NC(=O)NC(C)(C)C)COC/C=C/c1cccc3c1CN(C3)C(=O)O2)C(=O)NS(=O)(=O)C1CC1 [Compound IIa-12] | HCV replicon-containing huh-7 cells (replicon 1b) | < 10 nM
C=C[C@@H]1C[C@]1(NC(=O)[C@@H]1C[C@@H]2CN1C(=O)[C@H](C1CCCCC1)NC(=O)[C@@H](NC(=O)OC(C)(C)C)COC/C=C/c1cc3c(nccc3cc1OC)O2)C(=O)NS(=O)(=O)C1CC1 [Compound IIb-3] | HCV replicon-containing huh-7 cells (replicon 1b) | < 10 nM
C=C[C@@H]1C[C@]1(NC(=O)[C@@H]1C[C@@H]2CN1C(=O)[C@H](C(C)(C)C)NC(=O)[C@@H](NC(=O)OCc1ccccc1)COC/C=C/c1cccc3c1CN(C3)C(=O)O2)C(=O)NS(=O)(=O)C1CC1 [Compound IIa-10] | HCV replicon-containing huh-7 cells (replicon 1b) | < 10 nM
C=C[C@@H]1C[C@]1(NC(=O)[C@@H]1C[C@@H]2CN1C(=O)[C@H](C(C)(C)C)NC(=O)[C@@H](NC(=O)OC(C)(C)C)COC/C=C/c1cc3c(nccc3cc1OC)O2)C(=O)NS(=O)(=O)C1CC1 [Compound IIb-1] | HCV replicon-containing huh-7 cells (replicon 1b) | < 10 nM
C=C[C@@H]1C[C@]1(NC(=O)[C@@H]1C[C@@H]2CN1C(=O)[C@H](C(C)(C)C)NC(=O)[C@@H](NC(=O)OC(C)(C)C)COCCCc1cccc3c1CN(C3)C(=O)O2)C(=O)NS(=O)(=O)C1CC1 [Compound IIa-13] | HCV replicon-containing huh-7 cells (replicon 1b) | 10 to 50 nM
C=C[C@@H]1C[C@]1(NC(=O)[C@@H]1C[C@@H]2CN1C(=O)[C@H](C(C)(C)C)NC(=O)[C@H](N)COC/C=C/c1cccc3c1CN(C3)C(=O)O2)C(=O)NS(=O)(=O)C1CC1 [Compound IIa-4] | HCV replicon-containing huh-7 cells (replicon 1b) | 500 to 20000 nM
C=C[C@@H]1C[C@]1(NC(=O)[C@@H]1C[C@@H]2CN1C(=O)[C@H](C1CCCCC1)NC(=O)[C@@H](NC(=O)OC(C)(C)C)COC/C=C/c1cccc3c1CN(C3)C(=O)O2)C(=O)NS(=O)(=O)C1CC1 [Compound IIa-16] | HCV replicon-containing huh-7 cells (replicon 1b) | < 10 nM
CC[C@@H]1C[C@]1(NC(=O)[C@@H]1C[C@@H]2CN1C(=O)[C@H](C1CCCCC1)NC(=O)[C@@H](NC(=O)OC(C)(C)C)COC/C=C/c1cc3c(nccc3cc1OC)O2)C(=O)NS(=O)(=O)C1CC1 [Compound IIb-5] | HCV replicon-containing huh-7 cells (replicon 1b) | 10 to 50 nM
C=C[C@@H]1C[C@]1(NC(=O)[C@@H]1C[C@@H]2CN1C(=O)[C@H](C(C)(C)C)NC(=O)[C@@H](NC(=O)OC(C)(C)C)COCCCc1cc3c(nccc3cc1OC)O2)C(=O)NS(=O)(=O)C1CC1 [Compound IIb-2] | HCV replicon-containing huh-7 cells (replicon 1b) | < 10 nM
CC[C@@H]1C[C@]1(NC(=O)[C@@H]1C[C@@H]2CN1C(=O)[C@H](C(C)(C)C)NC(=O)[C@@H](NC(=O)OC(C)(C)C)COCCCc1cccc3c1CN(C3)C(=O)O2)C(=O)NS(=O)(=O)C1CC1 [Compound IIa-14] | HCV replicon-containing huh-7 cells (replicon 1b) | 50 to 500 nM
C=C[C@@H]1C[C@]1(NC(=O)[C@@H]1C[C@@H]2CN1C(=O)[C@H](C(C)(C)C)NC(=O)[C@@H](NC(=O)OC1CCCC1)COC/C=C/c1cccc3c1CN(C3)C(=O)O2)C(=O)NS(=O)(=O)C1CC1 [Compound IIa-11] | HCV replicon-containing huh-7 cells (replicon 1b) | < 10 nM

Value source: patent US9321809B2
